- PROTOCOL DETAILS: Oral toxicity (mortality), intragastric administration
- RECORDED CONDITIONS: mouse, in vivo, 1000 mg/kg, read-out: percentage of mortality
MEASURE: mortality
Reply with the number and its unit after it.

Q: For the compound shown here, Cc1ccccc1N1CCN(CCc2ccccc2NC2OC(=O)c3ccccc32)CC1 (stereo not drawn) [COR 34 49] , give the reported mortality.
Ans: 0%

Q: For the compound shown here, COc1ccc2c(c1OC)C(=O)OC2Nc1ccccc1CCN1CCN(c2ccccc2)CC1 (stereo not drawn) [COR 34 47] , give the reported mortality.
Ans: 0%

Q: For the compound shown here, COc1ccc2c(c1OC)C(=O)OC2Nc1ccccc1CCN1CCN(c2ccc(F)cc2)CC1 (stereo not drawn) [COR 34 43] , give the reported mortality.
Ans: 0%

Q: For the compound shown here, O=C1OC(Nc2ccccc2CCN2CCN(c3ccccc3)CC2)c2ccccc21 (stereo not drawn) [COR 34 30] , give the reported mortality.
Ans: 0%

Q: For the compound shown here, COc1ccccc1N1CCN(CCc2ccccc2NC2OC(=O)c3ccccc32)CC1 (stereo not drawn) [COR 34 41] , give the reported mortality.
Ans: 10%

Q: For the compound shown here, COc1ccc2c(c1OC)C(=O)OC2Nc1ccccc1CCN1CCN(c2ccccc2C)CC1 (stereo not drawn) [COR 34 48] , give the reported mortality.
Ans: 0%

Q: For the compound shown here, COc1ccc2c(c1OC)C(=O)OC2Nc1ccccc1CCN1CCN(c2ccc(Cl)cc2)CC1 (stereo not drawn) [COR 34 42] , give the reported mortality.
Ans: 0%

Q: For the compound shown here, COc1ccc(N2CCN(CCc3ccccc3NC3OC(=O)c4ccccc43)CC2)cc1 (stereo not drawn) [COR 34 53] , give the reported mortality.
Ans: 0%

Q: For the compound shown here, O=C1OC(Nc2ccccc2CCN2CCN(c3ccc(F)cc3)CC2)c2ccccc21 (stereo not drawn) [COR 34 37] , give the reported mortality.
Ans: 10%

---

- MEASUREMENT TARGET: contractions induced by histamine on a guinea pig ileum (Cavia porcellus, UniProt P31389)
- Construct: on a guinea pig ileum; from tissue; host or cells: isolated guinea pig ileum
- Sequence (P31389 whole entry): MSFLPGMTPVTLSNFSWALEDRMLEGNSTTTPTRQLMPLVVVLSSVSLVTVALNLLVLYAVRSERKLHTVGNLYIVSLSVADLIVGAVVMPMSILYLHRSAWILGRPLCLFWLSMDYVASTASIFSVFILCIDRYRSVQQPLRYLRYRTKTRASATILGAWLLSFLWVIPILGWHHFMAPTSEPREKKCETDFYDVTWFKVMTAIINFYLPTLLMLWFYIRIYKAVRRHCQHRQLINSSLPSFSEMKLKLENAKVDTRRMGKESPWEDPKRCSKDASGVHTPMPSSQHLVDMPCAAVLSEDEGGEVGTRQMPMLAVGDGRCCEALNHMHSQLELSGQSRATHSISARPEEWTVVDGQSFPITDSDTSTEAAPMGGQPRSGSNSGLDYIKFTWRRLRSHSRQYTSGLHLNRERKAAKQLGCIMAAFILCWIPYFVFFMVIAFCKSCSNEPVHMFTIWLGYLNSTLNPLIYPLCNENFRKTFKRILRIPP
- PROTOCOL DETAILS: In vitro antihistamine activity: inhibition of histamine-induced contractions of guinea pig ileum
- Format: cell-based
- RECORDED CONDITIONS: competitive antagonism of histamine; read-out: pA2 (converted)
MEASURE: Kb (nM)
// return numeric value only (unit: nM, not printed)

Q: For the molecule shown here, O=C1OC(Nc2ccccc2CCN2CCN(c3ccccc3)CC2)c2ccccc21 (stereo not shown) , give the reported Kb.
Ans: 20.4

Q: For the molecule shown here, O=C1OC(Nc2ccccc2CCN2CCN(c3ccc(F)cc3)CC2)c2ccccc21 (stereo not shown) , give the reported Kb.
Ans: 13.8

Q: For the molecule shown here, COc1ccccc1N1CCN(CCc2ccccc2NC2OC(=O)c3ccccc32)CC1 (stereo not shown) , give the reported Kb.
Ans: 9.33

Q: For the molecule shown here, COc1ccc2c(c1OC)C(=O)OC2Nc1ccccc1CCN1CCN(c2ccc(F)cc2)CC1 (stereo not shown) , give the reported Kb.
Ans: 10.7

---

- MEASUREMENT TARGET: contractions induced by histamine on a guinea pig ileum (Cavia porcellus)
- Construct: on a guinea pig ileum; from tissue; host or cells: isolated guinea pig ileum
- PROTOCOL DETAILS: In vitro antihistamine activity: inhibition of histamine-induced contractions of guinea pig ileum
- Format: cell-based
- RECORDED CONDITIONS: histamine 10^-8 g/l; no time of contact printed (antagonist given at the same time as agonist)
- Method: The antagonist is administered at the same time as the agonist or before. In the latter case, the time of contact between the antagonist and the organ isolated before the introduction of the agonist is shown in Table III.
MEASURE: IC50

Q: For the molecule shown here, O=C1OC(Nc2ccccc2CCN2CCN(c3ccccc3)CC2)c2ccccc21 (centres unmarked) , give the reported IC50.
Ans: 1.04 µM

Q: For the molecule shown here, COc1ccc2c(c1OC)C(=O)OC2Nc1ccccc1CCN1CCN(c2ccc(F)cc2)CC1 (centres unmarked) , give the reported IC50.
Ans: 3.53 µM

---

- Test system: cutaneous reactions induced by histamine
- PROTOCOL DETAILS: Cutaneous reactions induced by histamine
- Type: in vivo, rats
- RECORDED CONDITIONS: oral, rat
MEASURE: ED50
Reply with the number and its unit after it.

Q: Give the reported ED50 for O=C1OC(Nc2ccccc2CCN2CCN(c3ccc(F)cc3)CC2)c2ccccc21 (stereo not shown) (system: cutaneous reactions induced by histamine).
Ans: 9.3 mg/kg

Q: Give the reported ED50 for COc1ccc2c(c1OC)C(=O)OC2Nc1ccccc1CCN1CCN(c2ccc(F)cc2)CC1 (stereo not shown) (system: cutaneous reactions induced by histamine).
Ans: 9.1 mg/kg

Q: Give the reported ED50 for COc1ccccc1N1CCN(CCc2ccccc2NC2OC(=O)c3ccccc32)CC1 (stereo not shown) (system: cutaneous reactions induced by histamine).
Ans: 7.9 mg/kg

Q: Give the reported ED50 for O=C1OC(Nc2ccccc2CCN2CCN(c3ccccc3)CC2)c2ccccc21 (stereo not shown) (system: cutaneous reactions induced by histamine).
Ans: 12.1 mg/kg

---

- PROTOCOL DETAILS: Intraperitoneal toxicity (mortality, LD50)
- RECORDED CONDITIONS: mouse, in vivo, ip, 1000 mg/kg, read-out: percentage of mortality
Quick rule: mortality of at least 60% means 1 (yes), below that means 0 (no).

Q: Please check the record COc1ccc2c(c1OC)C(=O)OC2Nc1ccccc1CCN1CCN(c2ccccc2)CC1 (stereo not shown) [COR 34 47] and state if its mortality is at or above 60%.
Ans: 0 (no)

Q: Please check the record COc1ccc(N2CCN(CCc3ccccc3NC3OC(=O)c4ccccc43)CC2)cc1 (stereo not shown) [COR 34 53] and state if its mortality is at or above 60%.
Ans: 1 (yes)

Q: Please check the record COc1ccc2c(c1OC)C(=O)OC2Nc1ccccc1CCN1CCN(c2ccc(F)cc2)CC1 (stereo not shown) [COR 34 43] and state if its mortality is at or above 60%.
Ans: 0 (no)

Q: Please check the record COc1ccccc1N1CCN(CCc2ccccc2NC2OC(=O)c3ccccc32)CC1 (stereo not shown) [COR 34 41] and state if its mortality is at or above 60%.
Ans: 1 (yes)

Q: Please check the record COc1ccc2c(c1OC)C(=O)OC2Nc1ccccc1CCN1CCN(c2ccccc2C)CC1 (stereo not shown) [COR 34 48] and state if its mortality is at or above 60%.
Ans: 0 (no)

Q: Please check the record Cc1ccccc1N1CCN(CCc2ccccc2NC2OC(=O)c3ccccc32)CC1 (stereo not shown) [COR 34 49] and state if its mortality is at or above 60%.
Ans: 0 (no)

---

- PROTOCOL DETAILS: Intraperitoneal toxicity (mortality, LD50)
- RECORDED CONDITIONS: mouse, in vivo, ip, 200 mg/kg, read-out: percentage of mortality
MEASURE: mortality (%)
// return numeric value only (unit: %, not printed)

Q: For the molecule shown here, O=C1OC(Nc2ccccc2CCN2CCN(c3ccccc3)CC2)c2ccccc21 (stereo not shown) , give the reported mortality.
Ans: 10

---

- PROTOCOL DETAILS: Intraperitoneal toxicity (mortality, LD50)
- RECORDED CONDITIONS: mouse, in vivo, ip, 400 mg/kg, read-out: percentage of mortality
MEASURE: mortality (%)
// return numeric value only (unit: %, not printed)

Q: For the compound shown here, COc1ccccc1N1CCN(CCc2ccccc2NC2OC(=O)c3ccccc32)CC1 (stereo not shown) , give the reported mortality.
Ans: 0

---

- System: bronchospasm induced by a 0.3% histamine aerosol
- PROTOCOL DETAILS: In vivo antihistamine activity: bronchospasm induced by histamine aerosol in awake guinea pig
- RECORDED CONDITIONS: 10 mg/kg oral in Tween, 1 h
Would you mind telling me the reported % of animals protected at 1 h of each entry?

Q: For the compound shown here, O=C1OC(Nc2ccccc2CCN2CCN(c3ccc(F)cc3)CC2)c2ccccc21 (stereo not shown) [COR 34 37] , give the reported % of animals protected at 1 h.
Ans: 70%

Q: For the compound shown here, COc1ccc2c(c1OC)C(=O)OC2Nc1ccccc1CCN1CCN(c2ccccc2)CC1 (stereo not shown) [COR 34 47] , give the reported % of animals protected at 1 h.
Ans: 20%

Q: For the compound shown here, O=C1OC(Nc2ccccc2CCN2CCN(c3ccccc3)CC2)c2ccccc21 (stereo not shown) [COR 34 30] , give the reported % of animals protected at 1 h.
Ans: 60%

Q: For the compound shown here, COc1ccc2c(c1OC)C(=O)OC2Nc1ccccc1CCN1CCN(c2ccccc2C)CC1 (stereo not shown) [COR 34 48] , give the reported % of animals protected at 1 h.
Ans: 40%

Q: For the compound shown here, Cc1ccccc1N1CCN(CCc2ccccc2NC2OC(=O)c3ccccc32)CC1 (stereo not shown) [COR 34 49] , give the reported % of animals protected at 1 h.
Ans: 30%

Q: For the compound shown here, COc1ccccc1N1CCN(CCc2ccccc2NC2OC(=O)c3ccccc32)CC1 (stereo not shown) [COR 34 41] , give the reported % of animals protected at 1 h.
Ans: 90%

Q: For the compound shown here, COc1ccc2c(c1OC)C(=O)OC2Nc1ccccc1CCN1CCN(c2ccc(F)cc2)CC1 (stereo not shown) [COR 34 43] , give the reported % of animals protected at 1 h.
Ans: 90%
